// data source = patent US20260108546A1

Provide the reported EC50 of each item.
biological target: hGIP-R (Homo sapiens); construct: expressed in transfected cells; host or cells: HEK-293 clonal cell lines; assay: Functional hGIP-R Assay (cAMP formation, HTRF); format: cell-based; details: cAMP potency; HEK-293 cells expressing hGIP-R; incubated at 37° C. in the presence of 0.1% bovine casein; geometric mean; read-out: Human GIP-R EC50, nM (SEM, n)
Please state the figure in nM; there is no need to write the unit.

## Input Give hGIP-R (Homo sapiens) EC50 for Cc1ncc(-c2cc(C(F)(F)F)nn2CC(C)(C)NC(=O)[C@@H](Cc2cnn(C(F)F)c2)N2CCC3(CC3c3ccc(-c4cnc5nn(C)cc5c4)nc3C(F)(F)F)C2=O)cn1 (single isomer, unassigned; isomer 1) [Example 112]
## Output 3.21

## Input Give hGIP-R (Homo sapiens) EC50 for Cn1cc(C[C@@H](NC(=O)[C@H]2C[C@@H]2c2ccc(-c3cnc4nn(C)cc4c3)cc2)C(=O)NC(C)(C)Cn2nc(C(F)(F)F)cc2-c2cccn(C)c2=O)cn1 [Example 58]
## Output 23.8

## Input Give hGIP-R (Homo sapiens) EC50 for Cc1cn2cc(-c3ccc([C@H]4C[C@@]45CCN([C@H](Cc4cnn(C(F)F)c4)C(=O)NC(C)(C)Cn4nc(C(F)(F)F)cc4-c4cc(F)c(=O)n(C)c4)C5=O)c(C)c3)cnc2n1 [Example 144]
## Output 0.755

## Input Give hGIP-R (Homo sapiens) EC50 for Cn1cc(C[C@@H](NC(=O)[C@H]2C[C@@H]2c2ccc(-c3cnc4nn(C)cc4c3)cc2)C(=O)NC(C)(C)Cn2nc(C(F)(F)F)cc2-n2ccccc2=O)cn1 [Example 20]
## Output 79.7

## Input Give hGIP-R (Homo sapiens) EC50 for Cn1cc(C[C@@H](NC(=O)[C@H]2C[C@@H]2c2ccc(-c3cnc4nn(C)cc4c3)cc2F)C(=O)NC(C)(C)Cn2nc(C(F)(F)F)cc2-c2cn[nH]n2)cn1 [Example 93]
## Output 15.3

====

molecular target: hGIP-R (Homo sapiens, UniProt P48546); construct: expressed in transfected cells; host or cells: HEK-293 clonal cell lines; assay: Functional hGIP-R Assay (cAMP formation, HTRF); format: cell-based; conditions: cAMP potency; HEK-293 cells expressing hGIP-R; incubated at 37° C. in the presence of 0.1% bovine casein; geometric mean; read-out: Human GIP-R EC50, nM (SEM, n)
Sequence (P48546 22-466): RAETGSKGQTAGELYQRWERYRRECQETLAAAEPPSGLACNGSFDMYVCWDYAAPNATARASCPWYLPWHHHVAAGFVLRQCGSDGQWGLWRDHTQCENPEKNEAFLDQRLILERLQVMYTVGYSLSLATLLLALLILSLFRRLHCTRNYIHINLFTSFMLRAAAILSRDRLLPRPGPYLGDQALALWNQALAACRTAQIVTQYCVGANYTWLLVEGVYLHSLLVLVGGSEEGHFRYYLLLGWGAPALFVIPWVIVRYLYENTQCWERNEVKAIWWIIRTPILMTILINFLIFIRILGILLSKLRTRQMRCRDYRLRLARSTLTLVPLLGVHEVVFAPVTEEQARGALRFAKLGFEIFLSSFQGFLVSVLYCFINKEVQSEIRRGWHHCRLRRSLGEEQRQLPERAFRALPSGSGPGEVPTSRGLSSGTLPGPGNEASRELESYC
readout-label: EC50 (nM)
Please state the figure in nM; there is no need to write the unit.

## Input EC50 lookup needed for Cn1cc(C[C@@H](NC(=O)[C@H]2C[C@@H]2c2ccc(-c3cnc4nn(C)cc4c3)cc2)C(=O)NC(C)(C)Cn2nc(C(F)(F)F)cc2-c2cnn3c2CNCC3)cn1 [Example 96] , thanks.
## Output 169

## Input EC50 lookup needed for CC(C)(Cn1cc(C(F)(F)F)cn1)NC(=O)[C@@H](Cc1cnc2ncccn12)NC(=O)[C@H]1C[C@@H]1c1ccc(NC(=O)C2CCC(F)(F)CC2)cc1 [Example 45] , thanks.
## Output 10.7

## Input EC50 lookup needed for CN(C(=O)[C@H]1C[C@@H]1c1ccc(-c2cnc3nccn3c2)cc1)[C@H](Cc1cnn(C)c1)C(=O)NC(C)(C)Cn1nc(C(F)(F)F)cc1-c1ccc(=O)n(C)c1 [Example 34] , thanks.
## Output 183

## Input EC50 lookup needed for Cn1cc2cc(-c3ccc([C@H]4C[C@@]45CCN([C@H](Cc4cnn(C(F)F)c4)C(=O)NC(C)(C)Cn4nc(C(F)(F)F)cc4-c4cnc(N6CCC(=O)CC6)nc4)C5=O)cc3)cnc2n1 [Example 142] , thanks.
## Output 102

## Input EC50 lookup needed for COc1nnc(C)cc1-c1cc(C(F)(F)F)nn1CC(C)(C)NC(=O)[C@@H](Cc1cnn(C(F)F)c1)N1CC[C@@]2(C[C@@H]2c2ccc(-c3cnc4nn(C)cc4c3)nc2C)C1=O [Example 180] , thanks.
## Output 7.75

## Input EC50 lookup needed for Cc1ncc(-c2cc(C(F)(F)F)nn2CC(C)(C)NC(=O)[C@@H](Cc2cnn(C)c2)NC(=O)[C@H]2C[C@@H]2c2ccc(-c3cnc4nn(C)cc4c3)cc2)[nH]1 [Example 15] , thanks.
## Output 24.6

## Input EC50 lookup needed for Cn1cc2cc(-c3ccc([C@H]4C[C@@H]4C(=O)N[C@H](Cc4cnc5ncccn45)C(=O)NC(C)(C)Cn4nc(C(F)(F)F)cc4-c4ccc(=O)n(C)c4)cc3)cnc2n1 [Example 62] , thanks.
## Output 17.5

## Input EC50 lookup needed for Cn1cc(C[C@@H](NC(=O)[C@H]2C[C@@H]2c2ccc(-c3cnc4nn(C)cc4c3)cc2)C(=O)NC(C)(C)Cn2nc(C(F)(F)F)cc2C2CCC2)cn1 [Example 51] , thanks.
## Output 62.7

## Input EC50 lookup needed for Cn1cc(C[C@@H](NC(=O)[C@H]2C[C@@H]2c2ccc(-c3cnc4nn(C)cc4c3)cc2)C(=O)NC(C)(C)Cn2nc(C(F)(F)F)cc2-c2ccn(C[C@H]3C[C@H](F)C3)n2)cn1 [Example 67] , thanks.
## Output 45

## Input EC50 lookup needed for Cc1cn2cc(-c3ccc([C@H]4C[C@@]45CCN([C@H](Cc4cnn(C(F)F)c4)C(=O)NC(C)(C)Cn4nc(C(F)(F)F)cc4-c4ccc(=O)n(COP(=O)(O)O)n4)C5=O)c(F)c3)cnc2n1 [Example 151] , thanks.
## Output 16.9
